# System: MCF7 cells
# CONDITION PARAMETERS: 5 μM, 5 h
Classify as follows. Reported Cellular level, % of concentration applied greater than or equal to 10%: Yes. Reported Cellular level, % of concentration applied below: No.

The following molecules have reported results that may help.
* CCCCCCCCCCCCCCC[C@@H](O)[C@H](CO)NC(=O)CCCCCCCCCCCCCCC[n+]1ccccc1.[Br-] | No
* CCCCCCCCCCCCCCC[C@@H](O)[C@H](CO)NC(=O)CCCCC[n+]1ccccc1.[Br-] | Yes
* CCCCCCCCCCCCCCC[C@@H](O)[C@H](CO)NC(=O)C[n+]1ccccc1.[Br-] | Yes

Exam item: Check this molecule for Cellular level, % of concentration applied at or above 10%: CCCCCCCCCCCCC/C=C/[C@@H](O)[C@H](CO)NC(=O)CCCCCCCCCCC[n+]1ccccc1.[Br-]
Marked response: Yes

Exam item: Check if Cellular level, % of concentration applied >= 10% (inclusive). Item: CCCCCCCCCCCCCCC[C@@H](O)[C@H](CO)NC(=O)CCCCCCCCCCC[n+]1ccccc1.[Br-]
Marked response: No

----------
# Test system: UM-SCC12 cells
# ASSAY EXPLANATION: MTT cell survival assay
# Assay type: cell-based, human
# CONDITION PARAMETERS: UM-SCC12, 96 hr
OBSERVABLE: IC50

Exam item: Fill in: IC50 of CCCCCCCCCCCCCC=CC(O)C(CO)NC(=O)CCCCC[n+]1ccccc1 (stereo not shown) [C6-Pyr-Cer] is ___
Marked response: 250 to 300 nM

----------
# Tested on: UM-SCC-1 cells
# ASSAY EXPLANATION: MTT cell survival assay
# Assay type: cell-based, human
# CONDITION PARAMETERS: UM-SCC-1, 48 hr; read-out: IC50, growth
OBSERVABLE: IC50

Exam item: Param item = CCCCCCCCCCCCC/C=C/[C@H](O)[C@H](CO)NC(=O)CCCCC[n+]1ccccc1.[Br-] ; retrieve measured IC50.
Marked response: 1000 to 2000 nM

----------
# ASSAY EXPLANATION: Solubility of ceramides and ceramidoids in water
# CONDITION PARAMETERS: 37° C.
OBSERVABLE: Solubility at 37° C. (µg/mL)
Write the value in µg/mL as a bare number.

Worked set:
- CCCCCCCCCCCCC/C=C/[C@@H](O)[C@H](CO)NC(C)=O [C2-Cer, D-erythro-C2-ceramide, reference compound]: 10
- CCCCCCCCCCCCCCC[C@@H](O)[C@H](CO)NC(=O)C[n+]1ccccc1.[Br-]: 45000
- CCCCCCCCCCCCC/C=C/[C@@H](O)[C@H](CO)NC(=O)CCCCCCCCCCCCCCC [C16-Cer, D-erythro-C16-ceramide, reference compound]: 0.3
- CCCCCCCCCCCCCCC[C@@H](O)[C@H](CO)NC(=O)CCCCCCCCCCCCCCC[n+]1ccccc1.[Br-]: 1400
- CCCCCCCCCCCCC/C=C/[C@@H](O)[C@H](CO)NC(=O)c1ccc[n+](CCCCCCCC)c1.[Br-]: 120000

Now take the following compound into account.
Exam item: Form field: reported Solubility at 37° C. of CCCCCCCCCCCCC/C=C/[C@@H](O)[C@H](CO)NC(=O)CCCCC [C6-Cer, D-erythro-C6-ceramide, reference compound]
Marked response: 1.4
